- System: SF-295 CNS
- testMethodNotes: NCI tumour cell line growth inhibition, 48 h

molecule	ltGtEq	TGI, µM
CC(C)N(Cc1ccccc1)c1c(S)ssc1=S	=	11.7
C(#Cc1ccccc1C#Cc1cccs1)c1cccs1	>	100
Cc1cc2c(cc1-c1cc3c(cc1C)C(C(C)C)=C(O)C(=O)/C3=C\Nc1c3ccccc3nc3ccccc13)/C(=C/Nc1c3ccccc3nc3ccccc13)C(=O)C(O)=C2C(C)C	=	12.9
O=C1c2ccccc2C(O)(O)C1(O)C1(O)C(=O)c2ccccc2C1(O)O (stereo not given)	=	88.5
CP1(=O)CCCCC1	>	100

* * *

- Test system: K-562 leukemia
- testMethodNotes: NCI tumour cell line growth inhibition, 48 h

molecule	TGI
CN1CCOC(c2ccc(Cl)cc2)O1 (configuration not stated)	> 100 µM
Clc1ccc(C2SCc3nc4ccccc4n32)c(Cl)c1 (configuration not stated)	39.6 µM
CCc1n[nH]c(=O)n1/N=C/c1c(O)ccc2ccccc12	> 100 µM
CCOc1ccc(NC(=O)C(=O)CC(=O)c2sc(NNC(C)=O)nc2C)cc1	> 100 µM
COc1cc(O)c2c(=O)cc(-c3ccc(O)cc3O)oc2c1CC=C(C)C	> 100 µM
Cn1c(=O)c(Br)c(C=O)n(CCO[N+](=O)[O-])c1=O	8.82 µM
CS(=O)(=O)c1nc(-c2cc3c(c(S(C)(=O)=O)n2)CCC3)cc2c1CCCCC2	> 100 µM
O=C([CH-]C(=O)c1ccccc1)c1ccccc1.O=C([CH-]C(=O)c1ccccc1)c1ccccc1.[La+3].[OH-].[OH3+]	> 100 µM
COC(=O)C1(CCC(C)=O)CCCCCC1=O (configuration not stated)	> 100 µM
O=S1(=O)N=C(SCc2ccccc2)N(c2ccccc2)c2ccncc21	> 100 µM
Nc1ncnn2c(C3OC(CO)C(O)C3O)ccc12 (configuration not stated)	0.569 µM
c1ccc2c(c1)cc(C1NCCc3[nH]cnc31)c1ccccc12 (configuration not stated)	41.1 µM
